System: SK-MEL-28 melanoma
Experiment: NCI-60 one-dose screen, 48 h (100 = growth as untreated, 0 = no growth, -100 = all killed)
Conditions: 10 µM
Method: Growth inhibition of the SK-MEL-28 human tumor cell line is measured as a screen for anti-cancer activity. Cells are grown in 96 well plates and exposed to the test compound for 48 hours. Compounds are tested at a single concentration, which is 10^-5 M for most compounds. The reported endpoint is percent growth (GI% or GIPRCNT), where numbers from 0 - 100% represent growth inhibition, and numbers from -100% - 0 represent cell death. For example, a value of 40 represents 60% growth inhibition. […]
Compounds without any hit were thinned out: in the full panel of roughly 83,000, 20% have a hit.
Response key: t means growth >= 80%; f means growth < 80%.

These solved cases illustrate the format of a correct answer.
>>> assignedlabel("O=c1oc2ccc(I)cc2c(=O)n1-c1ccc(Cl)cc1F")
"f"
>>> assignedlabel("Cc1nc(Nc2ccccn2)sc1C(=O)/C=C/c1ccc(Cl)cc1")
"f"
>>> assignedlabel("COC(=O)/C(CCC=C(C)C)=C1\\[C@@H](OC(C)=O)C[C@@]2(C)[C@H]1CC(=O)N[C@H]1[C@@]3(C)CCNC(=O)[C@@H](C)[C@@H]3CC[C@@]12C")
"t"
>>> assignedlabel("COc1ccc(CSc2nnc(SCC(=O)Nc3ccc(Cl)cc3)s2)cc1")
"t"
>>> assignedlabel("COc1ccc(-n2c(C(O)c3ccccc3)nn(CN3CCOCC3)c2=S)cc1 (centres undefined)")
"t"
>>> assignedlabel("COc1ccccc1C(=O)O/N=C(\\N)Cc1cccc2ccccc12")
"t"
>>> assignedlabel("O=C(c1ccccc1)N(C(=S)NCCc1ccc(Cl)cc1)c1ccc(Cl)cc1")
"f"

Attention now shifts to the item below.
I'd appreciate it if you could say whether COc1ccc(/C=C2/SC(=O)N(CC(=O)N3CCN(c4cc5c(cc4F)c(=O)c(C(=O)O)cn5C4CC4)CC3)C2=O)cc1 has growth at least equal to 80%. t

----------
test system: OVCAR-3 ovarian; test: NCI-60 one-dose screen, 48 h; conditions: 10 µM unless noted
This is part of a sample that, as a whole, favours compounds with a hit. Of some 83,000 tested, about 20% had one in any assay. Active and inactive are the calls of the source. Rule for the calls: active = growth percent below 10; inactive = the rest.
Hi there, use one of these labels in your reply, thanks! Yes (active), No (inactive)

These solved cases illustrate the format of a correct answer.
>>> assignedlabel("COC(=O)/C(CCC=C(C)C)=C1\\[C@@H](OC(C)=O)C[C@@]2(C)[C@H]1C[C@@H](O)[C@H]1[C@@]3(C)CC[C@H](NCCO)[C@@H](C)[C@@H]3CC[C@@]12C")
"No"
>>> assignedlabel("O=C(Nc1ccc(Cl)cc1F)c1cc(F)ccc1O")
"Yes"
>>> assignedlabel("O=C(CN1C=NC2C(N3CCOCC3)=NC=NC21)c1cccc2ccccc12 (stereo unspecified)")
"No"
>>> assignedlabel("CC(C)C[C@H](C(=O)N[C@H](C(N)=O)C(C)C)N1CC=CCN(OCc2ccccc2)S1(=O)=O")
"No"
>>> assignedlabel("CCN(CCO)CCNc1ccc(C)c2sc3cc(Cl)ccc3c(=O)c12")
"No"
>>> assignedlabel("CN(C)/C=C1\\SC(=Nc2ccc(Cl)cc2)NC1=O")
"No"

Look up the recorded call for O=C(Nc1nc2c(s1)CCc1c-2c(Br)n(Cc2ccccc2)c1Br)c1ccccc1 in this test. No

Write down the call the test reported for this molecule. Item: Cc1ccc2[nH]c(=O)cc(-n3nncc3Cn3c4ccccc4c4ccccc43)c2c1 No

Which outcome was entered for the molecule CN1CCN(c2nc(Nc3ccc(O)cc3)nc3ccccc23)CC1 in this test? No

Tell me the recorded outcome of this test for COc1cc([C@@H]2NC(=O)NC(C)=C2C(=O)Nc2nc(-c3ccc(Cl)cc3)cs2)ccc1O . No

What classification did O=c1oc2ccc(Cl)cc2c(=O)n1-c1ccc(F)cc1F end up with in this test? Yes

Hello, I am checking results. What call was entered for O=C(CCc1nnc2sc(COc3ccccc3)nn12)c1nc2ncccc2[nH]1 ? No

Please let me know the test result on file for O=c1oc2ccc(Br)cc2c(=O)n1-c1ccc(Br)cc1F . Yes

What call does the record list for O=c1c2cccc(F)c2sc2c(N3CCNCC3)nc3ccccc3c12 ? No

What did this assay record as the result for CC1=CCC(OC(=O)C(C)(C)CCC(O)(C(=O)OC2(C(C)C)CCC3(C)OC3C2)C(C)C)(C(C)C)CC1 (stereo unspecified) ? Yes

Identify the outcome logged in this assay for the molecule shown: CCCCNc1nc(NC(C)(C)C)nc(NC(C)(C)C)n1 No

Returns: the outcome recorded for Cc1ccc2cccc(Oc3ccc(Nc4ncnc5onc(-c6ccccc6)c45)cc3)c2n1 in this assay. No

How did this test come out for CN(C)CCCNCc1ccc(-c2ccc(F)c(Cl)c2)o1 ? No

Per the assay record, what outcome was assigned to NCCOc1ccccc1/C=C1\c2ccccc2-c2ccc([N+](=O)[O-])cc21 ? Yes

Each molecule tested received a call. Report the one for CN1C(=O)N(C)C2Nn3c(s/c(=C\c4ccc(Cl)cc4Cl)c3=O)=NC21 (stereo unspecified) . No

// return assay outcome for O=S1(=O)N(Cc2ccccc2)[C@@H](Cc2ccccc2)[C@H](O)[C@H](O)[C@H](Cc2ccccc2)N1Cc1ccccc1 Yes

What call does the record list for Cc1nc2ccccc2c(/C=C/c2ccc(F)cc2)c1C(N)=O ? No

Please state the recorded outcome for this molecule: COc1ccc(-c2nnc(COc3ccc(C(=O)/C=C/c4ccco4)cc3)o2)cc1 No

Recorded test call requested for O=C(Cn1cc(COc2ncnc3c2cnn3-c2ccccc2)nn1)Nc1ccccn1 No

Outcome? COC(=O)c1c2c(c(C)[n+]([O-])c1C)C(=O)C(NCc1ccc(F)c(F)c1)=CC2=O Yes

For this molecule, state the assay outcome: CC(C)CCOc1ccc(-c2n[nH]c(C(F)(F)F)c2-c2cncc(C#N)c2)c(O)c1 Yes

Given Oc1c(C(Nc2ccccn2)c2cccc(Oc3ccccc3)c2)ccc2cccnc12 (stereo unspecified) , state the outcome it received in this test. Yes
